Entry source: patent US5620864A

- Tested on: α1,3-L-fucosyltransferase of the particulate fraction of ovarian tumor
- test: Assay of α1,3-fucosyltransferase with synthetic acceptors, ovarian tumor particulate fraction
- Format: biochemical, human
- condition-info: acceptor 3.0 mM, 37° C. 18 h
- Description: FIG. 2 The scheme for the preparation of the particulate and soluble fractions of human ovarian tumor. An incubation mixture contained 50 mM HEPES-NaOH, pH 7.5, 5 mM MnC12, 7 mM ATP, 3 mM NaN3, the acceptor 0.3 mM (for serum enzyme) or 3.0 mM (for tumor enzyme), 0.125 μCi of GDP-[U-^14 C] […] The Dowex column was then eluted successively with 3 ml each of 0.1M and 0.2M NaCl; these eluates which contained the [^14 C] fucosylated sulfated acceptors, were counted for radioactivity as before. […]
recorded-metric: [14C] Fucose Incorporated (CPM)
Answers are plain numbers, in CPM.

Here is how some compounds turned out for [14C] Fucose Incorporated (CPM).
[
  {
    "compound": "CO[C@H]1[C@H](O[C@H]2[C@H](O)[C@@H](NC(C)=O)C(O)O[C@@H]2CO)O[C@H](CO)[C@H](O)[C@@H]1O (stereo partly drawn)",
    "[14C] Fucose Incorporated (CPM)": 48252
  },
  {
    "compound": "CC(=O)N[C@H]1C(O)O[C@H](CO)[C@@H](O[C@@H]2O[C@H](CO)[C@H](O)[C@H](O)[C@H]2OS(=O)(=O)O)[C@@H]1O (stereo partly drawn)",
    "[14C] Fucose Incorporated (CPM)": 4718
  }
]

Next:
If you can, please state the reported [14C] Fucose Incorporated (CPM) value of "CC(=O)N[C@H]1[C@H](OCc2ccccc2)O[C@H](CO)[C@@H](O[C@@H]2O[C@H](CO)[C@H](O)[C@H](O)[C@H]2O[C@@H]2O[C@@H](C)[C@@H](O)[C@@H](O)[C@@H]2O)[C@@H]1O" . 83975

---

- System: α1,3-L-fucosyltransferase of the particulate fraction of ovarian tumor
- test: Assay of α1,3-fucosyltransferase with synthetic acceptors, ovarian tumor particulate fraction
- Type: biochemical, human
- condition-info: acceptor 3.0 mM, 37° C. 18 h
recorded-metric: [14C] Fucose Incorporated (CPM)
One number for each entry, in CPM.

[
  {
    "smiles-str": "CC(=O)N[C@H]1[C@H](O[C@H]2[C@@H](O)[C@@H](CO)O[C@@H](Oc3ccc([N+](=O)[O-])cc3)[C@@H]2O)O[C@H](CO)[C@@H](O[C@@H]2O[C@H](CO)[C@H](O)[C@H](O)[C@H]2O)[C@@H]1O",
    "[14C] Fucose Incorporated (CPM)": 33759
  }
]

// below: [14C] Fucose Incorporated (CPM) requested for another compound
Any idea what [14C] Fucose Incorporated (CPM) came out for "CO[C@@H]1O[C@H](CO)[C@H](O)[C@H](O[C@@H]2O[C@H](CO)[C@@H](O)[C@H](O[C@@H]3O[C@H](CO)[C@H](O)[C@H](O)[C@H]3O)[C@H]2NC(C)=O)[C@H]1O" on α1,3-L-fucosyltransferase of the particulate fraction of ovarian tumor? 20559

---

- System: α1,3-L-fucosyltransferase of the particulate fraction of ovarian tumor
- test: Assay of α1,3-fucosyltransferase with synthetic acceptors, ovarian tumor particulate fraction
- Format: biochemical, human
- condition-info: 2'-methyl LacNAc = 100
Use true when the recorded Relative Percent is no lower than 40%; use false when it is lower.

Use these answered entries as a reference point.
[
  {
    "compound": "CC(=O)N[C@H]1C(O)O[C@H](CO)[C@@H](O[C@@H]2O[C@H](CO)[C@H](O)[C@H](O)[C@H]2OS(=O)(=O)O)[C@@H]1O (stereo partly shown)",
    "assigned-label": "false"
  },
  {
    "compound": "CC(=O)N[C@H]1C(O)O[C@H](CO)[C@@H](O[C@@H]2O[C@H](COS(=O)(=O)O)[C@H](O)[C@H](O)[C@H]2O)[C@@H]1O (stereo partly shown)",
    "assigned-label": "true"
  },
  {
    "compound": "CC(=O)N[C@H]1C(O)O[C@H](CO)[C@@H](O[C@@H]2O[C@H](CO)[C@H](O)[C@H](O)[C@H]2O)[C@@H]1O[C@@H]1O[C@@H](C)[C@@H](O)[C@@H](O)[C@@H]1O (stereo partly shown)",
    "assigned-label": "false"
  },
  {
    "compound": "CC(=O)N[C@H]1[C@H](O[C@H]2[C@@H](O)[C@@H](CO)O[C@@H](Oc3ccc([N+](=O)[O-])cc3)[C@@H]2O)O[C@H](CO)[C@@H](O[C@@H]2O[C@H](CO)[C@H](O)[C@H](O)[C@H]2O)[C@@H]1O",
    "assigned-label": "true"
  },
  {
    "compound": "CO[C@@H]1O[C@H](CO)[C@H](O)[C@H](O[C@@H]2O[C@H](CO)[C@@H](O)[C@H](O[C@@H]3O[C@H](CO)[C@H](O)[C@H](O)[C@H]3O)[C@H]2NC(C)=O)[C@H]1O",
    "assigned-label": "true"
  }
]

Given CC(=O)N[C@H]1C(O)O[C@H](CO)[C@@H](O[C@@H]2O[C@H](CO)[C@H](O)[C@H](O)[C@H]2O[C@@H]2O[C@@H](C)[C@@H](O)[C@@H](O)[C@@H]2O)[C@@H]1O (stereo partly shown) , state whether its Relative Percent is at least 40%. true

Follow-up item: CC(=O)N[C@H]1C(O)O[C@H](CO)[C@@H](O[C@@H]2O[C@H](CO)[C@H](O)[C@H](O)[C@H]2O)[C@@H]1O (stereo partly shown) true

Also, CC(=O)N[C@H]1C(O)O[C@H](CO)[C@@H](O)[C@@H]1O[C@@H]1O[C@H](CO)[C@H](O)[C@H](O)[C@H]1O (stereo partly shown) please. false

Same for "CC(=O)N[C@H]1[C@H](OCc2ccccc2)O[C@H](CO)[C@@H](O)[C@@H]1O[C@@H]1O[C@H](CO)[C@H](O)[C@H](OS(=O)(=O)O)[C@H]1O" false

Same question for CC(=O)N[C@H]1C(O)O[C@H](COS(=O)(=O)O)[C@@H](O[C@@H]2O[C@H](CO)[C@H](O)[C@H](O)[C@H]2O)[C@@H]1O (stereo partly shown) please. true
